tested on: left ventricular dp/dt max; test: Cardiac stimulant activity in vivo in anaesthetised cats (left ventricular dp/dt max, i.v.); set-up: species or system cat; conditions: Felis catus, read-out: ED50 (dose to increase left ventricular dp/dt max by 50%); intravenous; anaesthetised cats pretreated with ganglion blocker (mecamylamine or pempidine) and propranolol
Field: ED50. Provide a value for each of the molecules that follow.
The reply should be a number in µmol/kg, with the unit left off.

The reported ED50 of the molecule Nc1ccc2c(c1)CC1CC(=O)NN=C21 (stereo not shown) [Example 1] was 1.8

Summary for this molecule, CC12CC(=O)NN=C1c1ccc(C(N)=O)cc1C2 (stereo not shown) [Example 3] : ED50 is 0.4

ED50 for COc1ccc2c(c1)CCC1(C)CC(=O)NN=C21 (stereo not shown) [Example 10] is 0.2

Recorded ED50 (molecule COc1ccc2c(c1)CC1(C)CC(=O)NN=C21 (stereo not shown) [Example 7] ): 1.4

ED50 reading for NC(=O)c1ccc2c(c1)CCC1CC(=O)NN=C21 (stereo not shown) [Example 17] : 1.2

Summary for this molecule, CC12CCc3cc(C(N)=O)ccc3C1=NNC(=O)C2 (stereo not shown) [Example 19] : ED50 is 1.6

Recorded result, CN=C(NC#N)Nc1ccc2c(c1)CCC1CC(=O)NN=C21 (stereo not shown) [Example 15] , ED50: 1.2
